- System: NCI-H1793 (Lung Adenocarcinoma)
- assay_protocol: Bliss excess, mean over the matrix (fraction); higher = more synergy
quantity_kind: Bliss excess
Answers are plain numbers.

As a guide, the following entries are already answered.
CS(=O)(=O)CCNCc1ccc(-c2ccc3ncnc(Nc4ccc(OCc5cccc(F)c5)c(Cl)c4)c3c2)o1 [Lapatinib] + C[C@@H](Oc1cc(-c2cnn(C3CCNCC3)c2)cnc1N)c1c(Cl)ccc(F)c1Cl [Crizotinib] (first compound max 10 µM, 7x7, partner max 10 µM) : -0.0351
COc1nnc2ccc(N3CCC(c4ccc(OCCN5CCN(C)C(=O)[C@H]5C)cc4)CC3)nn12 [AZD5153] + Cn1cnc2c(F)c(Nc3ccc(Br)cc3Cl)c(C(=O)NOCCO)cc21 [Selumetinib] (first compound max 1 µM, 7x7, partner max 10 µM) : 0.0212

Attention now turns to another entry.
QUERY: Report Bliss excess for CC1(C)CCC(CN2CCN(c3ccc(C(=O)NS(=O)(=O)c4ccc(NCC5CCOCC5)c([N+](=O)[O-])c4)c(Oc4cnc5[nH]ccc5c4)c3)CC2)=C(c2ccc(Cl)cc2)C1 [Venetoclax] + C=CCn1c(=O)c2cnc(Nc3ccc(N4CCN(C)CC4)cc3)nc2n1-c1cccc(C(C)(C)O)n1 [AZD1775] (first compound max 1 µM, partner max 1 µM) please.
RESULT: -0.0007

###

- Tested on: MDA-MB-157 (Breast Carcinoma)
- assay_protocol: combination Emax (second highest fraction inhibited in the dose matrix, 72 h); higher = more inhibition; extreme values may be limits of the assay
Values of combination Emax greater than or equal to 0.5 map to Yes; values below map to No.

Please review the following examples before continuing.
CN(C)CCCOc1ccc(-c2ccc3ncc4c(c3c2)n(C2CCOCC2)c(=O)n4C)cn1 [AZD0156] + C[C@@H]1COCCN1C2=NC(=NC(=C2)C3(CC3)[S@](=N)(=O)C)C4=C5C=CNC5=NC=C4 [AZD6738] (first compound max 1 µM, 7x7, partner max 10 µM) : Yes
COc1nnc2ccc(N3CCC(c4ccc(OCCN5CCN(C)C(=O)[C@H]5C)cc4)CC3)nn12 [AZD5153] + CCN(CCO)CCCOc1ccc2c(Nc3cc(CC(=O)Nc4cccc(F)c4)[nH]n3)ncnc2c1 [AZD2811] (first compound max 1 µM, 7x7, partner max 1 µM) : Yes
CN(CCO)CC[C@H](CSc1ccccc1)Nc1ccc(S(=O)(=O)NC(=O)c2ccc(N3CCC([C@@H](O)c4ccccc4-c4ccc(Cl)cc4)CC3)cc2)cc1S(=O)(=O)C(F)(F)F [AZD4320] + C[C@@H]1COCCN1C2=NC(=NC(=C2)C3(CC3)[S@](=N)(=O)C)C4=C5C=CNC5=NC=C4 [AZD6738] (first compound max 1 µM, 7x7, partner max 10 µM) : Yes

QUERY: Given C=CCn1c(=O)c2cnc(Nc3ccc(N4CCN(C)CC4)cc3)nc2n1-c1cccc(C(C)(C)O)n1 [AZD1775] + CCc1c2c(nc3ccc(O)cc13)-c1cc3c(c(=O)n1C2)COC(=O)[C@]3(O)CC [SN-38] (first compound max 1 µM, partner max 0.3 µM) , state whether its combination Emax is at least 0.5.
RESULT: Yes

QUERY: Follow-up item: NC1(C(=O)N[C@@H](CCO)c2ccc(Cl)cc2)CCN(c2ncnc3[nH]ccc23)CC1 [Capivasertib] + C[C@@H]1COCCN1C2=NC(=NC(=C2)C3(CC3)[S@](=N)(=O)C)C4=C5C=CNC5=NC=C4 [AZD6738] (first compound max 10 µM, 7x7, partner max 10 µM)
RESULT: Yes

QUERY: Now this one: Cc1cc2ncnn2cc1Nc1ncc2c(n1)n(C1CCOCC1)c(=O)n2C [AZD7648] + CN(C)CCCOc1ccc(-c2ccc3ncc4c(c3c2)n(C2CCOCC2)c(=O)n4C)cn1 [AZD0156] (first compound max 10 µM, 7x7, partner max 1 µM)
RESULT: No

QUERY: Also check Cc1nc(Nc2ncc(C(=O)Nc3c(C)cccc3Cl)s2)cc(N2CCN(CCO)CC2)n1 [Dasatinib] + CC(=O)Nc1cccc(-n2c(=O)n(C3CC3)c(=O)c3c(Nc4ccc(I)cc4F)n(C)c(=O)c(C)c32)c1 [Trametinib] (first compound max 2 µM, 7x7, partner max 1 µM)
RESULT: No

QUERY: Subsequent entry: CC1(C)CCC(CN2CCN(c3ccc(C(=O)NS(=O)(=O)c4ccc(NCC5CCOCC5)c([N+](=O)[O-])c4)c(Oc4cnc5[nH]ccc5c4)c3)CC2)=C(c2ccc(Cl)cc2)C1 [Venetoclax] + Cn1cnc2c(F)c(Nc3ccc(Br)cc3Cl)c(C(=O)NOCCO)cc21 [Selumetinib] (first compound max 1 µM, 7x7, partner max 3 µM)
RESULT: Yes

###

What combination Emax was measured for each of the following?
- Tested on: DB (B-Cell Non-Hodgkin's Lymphoma)
- assay_protocol: combination Emax (second highest fraction inhibited in the dose matrix, 72 h); higher = more inhibition; extreme values may be limits of the assay
Give bare numbers.

Would you please look over these solved cases?
CN(CCO)CC[C@H](CSc1ccccc1)Nc1ccc(S(=O)(=O)NC(=O)c2ccc(N3CCC([C@@H](O)c4ccccc4-c4ccc(Cl)cc4)CC3)cc2)cc1S(=O)(=O)C(F)(F)F [AZD4320] + CC(=O)O[C@H]1C(=O)[C@@]2(C)[C@H]([C@H](OC(=O)c3ccccc3)[C@]3(O)C[C@H](OC(=O)[C@H](O)[C@@H](NC(=O)c4ccccc4)c4ccccc4)C(C)=C1C3(C)C)[C@]1(OC(C)=O)CO[C@@H]1C[C@@H]2O [Paclitaxel] (first compound max 1 µM, 7x7, partner max 3 µM) : 1
COc1cc2ncnc(Nc3ccc(F)c(Cl)c3)c2cc1OCCCN1CCOCC1 [Gefitinib] + CC(C)n1c(=O)n(C)c2cnc3cc(F)c(-c4ccc(OCCCN5CCCCC5)nc4)cc3c21 [AZD1390] (first compound max 10 µM, 7x7, partner max 0.3 µM) : 0.328

Now for a further compound.
QUERY: # lookup: combination Emax of N#Cc1cnc(Nc2cc(NC[C@H]3CNCCO3)c(C(F)(F)F)cn2)cn1 [SRA737] + Nc1ccn([C@@H]2O[C@H](CO)[C@@H](O)C2(F)F)c(=O)n1 [Gemcitabine] (first compound max 10 µM, 7x7, partner max 0.3 µM)
RESULT: 0.931

###

- System: TGBC24TKB (Biliary Tract Carcinoma)
- assay_protocol: combination Emax (second highest fraction inhibited in the dose matrix, 72 h); higher = more inhibition; extreme values may be limits of the assay
Would you please tag the item criterion met when its combination Emax is 0.7 or above, and criterion not met when it is below?

Would you please look over these solved cases?
COc1nnc2ccc(N3CCC(c4ccc(OCCN5CCN(C)C(=O)[C@H]5C)cc4)CC3)nn12 [AZD5153] + CCN(CCO)CCCOc1ccc2c(Nc3cc(CC(=O)Nc4cccc(F)c4)[nH]n3)ncnc2c1 [AZD2811] (first compound max 1 µM, 7x7, partner max 1 µM) : criterion met
C[C@@H](c1ccc2nccn2c1)n1nnc2ncc(-c3cnn(C)c3)nc21 [Savolitinib] + Cc1c2c(nn1C)CSCc1cc(n(C)n1)CSc1cc(c3ccccc3c1)OCCCc1c(C(=O)O)n(C)c3c-2c(Cl)ccc13 [AZD5991] (first compound max 1 µM, 7x7, partner max 1 µM) : criterion not met

QUERY: Would you say Cc1c2c(nn1C)CSCc1cc(n(C)n1)CSc1cc(c3ccccc3c1)OCCCc1c(C(=O)O)n(C)c3c-2c(Cl)ccc13 [AZD5991] + C=CCn1c(=O)c2cnc(Nc3ccc(N4CCN(C)CC4)cc3)nc2n1-c1cccc(C(C)(C)O)n1 [AZD1775] (first compound max 1 µM, partner max 1 µM) shows combination Emax at minimum 0.7?
RESULT: criterion not met

QUERY: Continue with COc1cc2c(cc1OCCCCCOc1cc3c(cc1OC)C(=O)N1C=C(C)C[C@H]1C=N3)N=C[C@@H]1CC(C)=CN1C2=O [SG3199] + O=C(c1cc(Cc2n[nH]c(=O)c3ccccc23)ccc1F)N1CCN(C(=O)C2CC2)CC1 [Olaparib] (first compound max 0.001 µM, 7x7, partner max 10 µM)
RESULT: criterion not met

QUERY: What about CC1(C)CCC(CN2CCN(c3ccc(C(=O)NS(=O)(=O)c4ccc(NCC5CCOCC5)c([N+](=O)[O-])c4)c(Oc4cnc5[nH]ccc5c4)c3)CC2)=C(c2ccc(Cl)cc2)C1 [Venetoclax] + C=CCn1c(=O)c2cnc(Nc3ccc(N4CCN(C)CC4)cc3)nc2n1-c1cccc(C(C)(C)O)n1 [AZD1775] (first compound max 1 µM, partner max 1 µM) ?
RESULT: criterion not met

###

Exercise: state measured Bliss excess for each of the molecules provided.
- Test system: KM-H2 (Hodgkin's Lymphoma)
- assay_protocol: Bliss excess, mean over the matrix (fraction); higher = more synergy

Example entries and their recorded answers appear below.
CS(=O)(=O)CCNCc1ccc(-c2ccc3ncnc(Nc4ccc(OCc5cccc(F)c5)c(Cl)c4)c3c2)o1 [Lapatinib] + C[C@@H](Oc1cc(-c2cnn(C3CCNCC3)c2)cnc1N)c1c(Cl)ccc(F)c1Cl [Crizotinib] (first compound max 10 µM, 7x7, partner max 10 µM) : 0.0018
COc1cccc(OCCCN)c1-c1cc(Nc2cnc(C#N)cn2)n[nH]1 [Prexasertib] + CCc1c2c(nc3ccc(O)cc13)-c1cc3c(c(=O)n1C2)COC(=O)[C@]3(O)CC [SN-38] (first compound max 1 µM, 7x7, partner max 0.3 µM) : -0.0411
COc1nnc2ccc(N3CCC(c4ccc(OCCN5CCN(C)C(=O)[C@H]5C)cc4)CC3)nn12 [AZD5153] + Cc1c2c(nn1C)CSCc1cc(n(C)n1)CSc1cc(c3ccccc3c1)OCCCc1c(C(=O)O)n(C)c3c-2c(Cl)ccc13 [AZD5991] (first compound max 1 µM, 7x7, partner max 1 µM) : -0.0495

Could you now consider this next molecule?
QUERY: What does the data say about its Bliss excess? Entry: CC1(C)CCC(CN2CCN(c3ccc(C(=O)NS(=O)(=O)c4ccc(NCC5CCOCC5)c([N+](=O)[O-])c4)c(Oc4cnc5[nH]ccc5c4)c3)CC2)=C(c2ccc(Cl)cc2)C1 [Venetoclax] + Cn1cnc2c(F)c(Nc3ccc(Br)cc3Cl)c(C(=O)NOCCO)cc21 [Selumetinib] (first compound max 1 µM, 7x7, partner max 3 µM)
RESULT: -0.0221
